Study target: CRTH2 receptor (Homo sapiens, UniProt Q9Y5Y4)
Sequence (Q9Y5Y4 whole entry): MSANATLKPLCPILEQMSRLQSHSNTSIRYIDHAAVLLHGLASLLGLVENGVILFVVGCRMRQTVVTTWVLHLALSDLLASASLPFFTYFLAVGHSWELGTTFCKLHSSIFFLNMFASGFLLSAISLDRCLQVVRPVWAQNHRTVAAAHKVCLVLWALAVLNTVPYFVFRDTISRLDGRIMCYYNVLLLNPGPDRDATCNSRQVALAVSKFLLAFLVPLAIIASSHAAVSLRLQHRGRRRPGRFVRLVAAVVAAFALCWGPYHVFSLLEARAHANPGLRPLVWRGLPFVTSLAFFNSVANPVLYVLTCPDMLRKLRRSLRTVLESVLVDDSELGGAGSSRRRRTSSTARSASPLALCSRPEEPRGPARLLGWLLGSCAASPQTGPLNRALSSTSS
Test: Calcium mobilisation (flux) functional assay
Condition: CHO-K1 cells co-expressing CRTH2 receptor and Gα16; PGD2 agonist at EC80
The molecules listed here are annotated with their pIC50.
When answering, recall that pIC50 equals minus log10 of the concentration in mol/L, and write that number alone.

Guide cases for pIC50, answers given:
{"Compound structure": "Cc1c(CC(=O)O)c2ccc(F)cn2c1Sc1ccc(S(C)(=O)=O)cc1F", "Experimental value": 8.18}
{"Compound structure": "Cc1c(CC(=O)O)c2ccc(F)cn2c1Sc1ccc(S(=O)(=O)NC2CC2)cc1", "Experimental value": 7.66}
{"Compound structure": "Cc1c(CC(=O)O)c2ccc(F)cn2c1Sc1ccc(S(C)(=O)=O)cc1C(F)(F)F", "Experimental value": 7.96}

Proceed to the following item.
Q) Which pIC50 value belongs to CCS(=O)(=O)c1ccc(Sc2c(C)c(CC(=O)O)c3ccc(F)cn23)cc1 ?
A) 8.05
